Molecular target: HLA-A*1101 (human)
OBSERVATION TYPE: relative binding ratio (IC50 of standard peptide / IC50 of test peptide)
Keep the answer to the number alone.

Specify reported relative binding ratio (IC50 of standard peptide / IC50 of test peptide) for the binder shown: TTLEQQYNK (modifications not checked) [… (HPV16 E6, position 93, 9 amino acids)]
0.29

Specify reported relative binding ratio (IC50 of standard peptide / IC50 of test peptide) for the binder shown: KDCATMCRHY (modifications not checked) [HPV16 E1 403 …]
0.0002

Specify reported relative binding ratio (IC50 of standard peptide / IC50 of test peptide) for the binder shown: GLSFTDLVR (modifications not checked) [HPV45 E1 209 … (SEQ ID NO: 43622)]
0.0025

Specify reported relative binding ratio (IC50 of standard peptide / IC50 of test peptide) for the binder shown: ALFTAQEAK (modifications not checked) [HPV16 E1 69 …]
0.4

Specify reported relative binding ratio (IC50 of standard peptide / IC50 of test peptide) for the binder shown: FMSFLTALK (modifications not checked) [HPV16 E1 453 …]
0.21
